Data provenance is patent US20180057604A1.

Give measured EC50 for each item. Keep answers brief.
Target: T1, human TfR extracellular domain with N-terminal His tag (human, UniProt P02786 89-760)
T1 construct: Biotinylated in some assays; also called huTfR; HuTfR
T1 sequence (P02786 89-760 G142S): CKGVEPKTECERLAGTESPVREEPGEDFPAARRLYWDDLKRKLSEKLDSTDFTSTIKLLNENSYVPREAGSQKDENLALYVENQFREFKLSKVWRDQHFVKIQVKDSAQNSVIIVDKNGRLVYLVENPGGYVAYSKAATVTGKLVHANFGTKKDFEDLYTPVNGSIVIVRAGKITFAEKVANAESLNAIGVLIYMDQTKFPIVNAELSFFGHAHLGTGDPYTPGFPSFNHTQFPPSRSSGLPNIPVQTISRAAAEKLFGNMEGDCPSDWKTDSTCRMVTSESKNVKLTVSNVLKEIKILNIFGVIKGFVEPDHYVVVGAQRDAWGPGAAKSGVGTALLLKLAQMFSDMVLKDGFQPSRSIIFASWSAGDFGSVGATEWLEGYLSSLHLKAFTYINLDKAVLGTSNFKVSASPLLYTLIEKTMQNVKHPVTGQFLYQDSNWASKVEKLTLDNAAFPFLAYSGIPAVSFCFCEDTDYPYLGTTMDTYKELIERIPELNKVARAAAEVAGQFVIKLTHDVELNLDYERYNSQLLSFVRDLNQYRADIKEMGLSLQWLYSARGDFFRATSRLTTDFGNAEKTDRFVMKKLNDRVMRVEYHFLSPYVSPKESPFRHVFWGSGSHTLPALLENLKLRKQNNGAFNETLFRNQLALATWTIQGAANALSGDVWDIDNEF
Test: ELISA, TfR-coated plate, IgG in culture supernatant;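 also: human or cynomolgus TfR coated at 2 µg/mL, supernatant IgG titrated in 1:5 steps for 1 h, bound antibody read with HRP anti-human Fcγ and TMB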

Q) Entry hu15G11.v5 IgG Ala variant E61A (HVR-H2) (antibody, name in Kabat numbering, V domains shown, IgG in cell culture supernatant; Kabat numbers after 52a lie one below the linear count) VH: EVQLVQSGAEVKKPGASVKVSCKASGYTFTSYWMHWVRQAPGQRLEWIGEINPTNGRTNYIAKFKSRATLTVDKSASTAYMELSSLRSEDTAVYYCARGTRAYHYWGQGTMVTVSS VL: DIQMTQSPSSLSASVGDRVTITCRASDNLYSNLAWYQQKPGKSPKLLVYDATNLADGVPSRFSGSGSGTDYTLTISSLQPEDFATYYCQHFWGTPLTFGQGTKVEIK has what EC50?
A) 0.2 ng/mL

Q) Give its EC50 value. Item: hu15G11.v5 IgG Ala variant N53A (HVR-L2) (antibody, V domains shown, IgG in cell culture supernatant) VH: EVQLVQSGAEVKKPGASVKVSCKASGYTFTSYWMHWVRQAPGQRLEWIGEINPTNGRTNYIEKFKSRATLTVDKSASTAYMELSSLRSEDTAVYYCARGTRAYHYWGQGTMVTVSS VL: DIQMTQSPSSLSASVGDRVTITCRASDNLYSNLAWYQQKPGKSPKLLVYDATALADGVPSRFSGSGSGTDYTLTISSLQPEDFATYYCQHFWGTPLTFGQGTKVEIK
A) 0.3 ng/mL

Q) Give the measured EC50 of hu15G11.v5 IgG Ala variant D56A (HVR-L2) (antibody, V domains shown, IgG in cell culture supernatant) VH: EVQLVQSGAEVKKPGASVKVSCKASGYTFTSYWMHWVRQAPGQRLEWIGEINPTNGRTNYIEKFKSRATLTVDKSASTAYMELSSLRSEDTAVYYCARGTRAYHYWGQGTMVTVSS VL: DIQMTQSPSSLSASVGDRVTITCRASDNLYSNLAWYQQKPGKSPKLLVYDATNLAAGVPSRFSGSGSGTDYTLTISSLQPEDFATYYCQHFWGTPLTFGQGTKVEIK .
A) 0.3 ng/mL

Q) Look at this binder and give its reported EC50. hu15G11.v5 IgG Ala variant T28A (HVR-H1) (antibody, name in Kabat numbering, V domains shown, IgG in cell culture supernatant) VH: EVQLVQSGAEVKKPGASVKVSCKASGYAFTSYWMHWVRQAPGQRLEWIGEINPTNGRTNYIEKFKSRATLTVDKSASTAYMELSSLRSEDTAVYYCARGTRAYHYWGQGTMVTVSS VL: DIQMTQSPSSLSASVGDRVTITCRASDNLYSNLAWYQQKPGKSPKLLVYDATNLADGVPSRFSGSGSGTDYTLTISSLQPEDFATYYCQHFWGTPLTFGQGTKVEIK
A) 0.4 ng/mL

Q) Which measured EC50 value corresponds to hu15G11.v5 IgG Ala variant S31A (HVR-L1) (antibody, V domains shown, IgG in cell culture supernatant; also called S31A (light chain)) VH: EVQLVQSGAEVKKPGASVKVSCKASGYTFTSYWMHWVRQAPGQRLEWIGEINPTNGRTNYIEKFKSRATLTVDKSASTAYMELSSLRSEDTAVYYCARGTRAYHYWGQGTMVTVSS VL: DIQMTQSPSSLSASVGDRVTITCRASDNLYANLAWYQQKPGKSPKLLVYDATNLADGVPSRFSGSGSGTDYTLTISSLQPEDFATYYCQHFWGTPLTFGQGTKVEIK ?
A) 0.3 ng/mL

Q) Can you look up the measured EC50 of hu15G11.v5 IgG Ala variant T52A (HVR-L2) (antibody, V domains shown, IgG in cell culture supernatant) VH: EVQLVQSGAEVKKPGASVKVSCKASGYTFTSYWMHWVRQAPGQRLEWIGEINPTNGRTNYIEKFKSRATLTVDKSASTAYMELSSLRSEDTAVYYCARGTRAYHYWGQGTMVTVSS VL: DIQMTQSPSSLSASVGDRVTITCRASDNLYSNLAWYQQKPGKSPKLLVYDAANLADGVPSRFSGSGSGTDYTLTISSLQPEDFATYYCQHFWGTPLTFGQGTKVEIK for me?
A) 0.2 ng/mL

Q) Field request: EC50 | item: hu15G11.v5 IgG Ala variant K64A (HVR-H2) (antibody, name in Kabat numbering, V domains shown, IgG in cell culture supernatant; Kabat numbers after 52a lie one below the linear count) VH: EVQLVQSGAEVKKPGASVKVSCKASGYTFTSYWMHWVRQAPGQRLEWIGEINPTNGRTNYIEKFASRATLTVDKSASTAYMELSSLRSEDTAVYYCARGTRAYHYWGQGTMVTVSS VL: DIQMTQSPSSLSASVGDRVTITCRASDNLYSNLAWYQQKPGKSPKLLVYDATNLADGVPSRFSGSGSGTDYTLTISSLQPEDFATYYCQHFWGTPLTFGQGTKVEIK
A) 0.3 ng/mL

Q) I have this binder here, hu15G11.v5 IgG Ala variant D50A (HVR-L2) (antibody, V domains shown, IgG in cell culture supernatant) VH: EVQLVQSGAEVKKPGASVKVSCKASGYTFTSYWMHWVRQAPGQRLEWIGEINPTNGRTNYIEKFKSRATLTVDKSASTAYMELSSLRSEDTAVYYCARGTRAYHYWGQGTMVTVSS VL: DIQMTQSPSSLSASVGDRVTITCRASDNLYSNLAWYQQKPGKSPKLLVYAATNLADGVPSRFSGSGSGTDYTLTISSLQPEDFATYYCQHFWGTPLTFGQGTKVEIK , and I need its recorded EC50.
A) 0.2 ng/mL
